Notes on IC50 obtained with Putative heat shock protein HSP 90-alpha A4 (Homo sapiens).
Number in µM, nothing else.

Known results for molecules:
mol | unit.abbreviation | IC50
CN1CCc2c(-c3cc(Cl)c(O)cc3O)noc2C1=O | µM | 10
O=C1NCCc2c(-c3cc(Cl)c(O)cc3O)noc21 | µM | 1.6

IC50 reported for this molecule `C=CCNC1=C2C[C@@H](C)C[C@H](OC)C[C@@H](C)/C=C/[C@H](OC(N)=O)[C@@H](OC)/C=C\C=C(/C)C(=O)NC(=CC1=O)C2=O` : 1.09

====

Notes on IC50 obtained with Putative heat shock protein HSP 90-alpha A4 (Homo sapiens, UniProt Q58FG1).
Sequence (Q58FG1 whole entry): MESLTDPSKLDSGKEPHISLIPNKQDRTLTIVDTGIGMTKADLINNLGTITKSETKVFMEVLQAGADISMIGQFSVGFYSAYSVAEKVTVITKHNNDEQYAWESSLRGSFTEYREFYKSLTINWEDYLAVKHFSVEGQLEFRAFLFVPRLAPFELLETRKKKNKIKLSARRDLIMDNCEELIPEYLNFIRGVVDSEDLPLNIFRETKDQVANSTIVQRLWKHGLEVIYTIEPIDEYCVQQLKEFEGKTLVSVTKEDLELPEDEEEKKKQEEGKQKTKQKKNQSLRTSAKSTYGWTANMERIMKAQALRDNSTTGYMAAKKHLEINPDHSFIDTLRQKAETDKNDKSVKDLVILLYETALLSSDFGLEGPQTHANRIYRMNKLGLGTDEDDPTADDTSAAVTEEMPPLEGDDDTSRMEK

Known results for molecules:
molecule | IC50
NC(=O)c1ccc(-c2noc3c2CCCC3=NOCCN2CCOCC2)cc1 | > 100 µM
NCCON=C1CCCc2c(-c3ccc(C(N)=O)cc3)noc21 | > 100 µM
NC(=O)c1ccc(-c2noc3c2CCCC3=O)cc1 | > 100 µM

Next, consider the following molecule.
IC50 reported for this molecule NC(=O)c1ccc(-c2noc3c2CCCC3O)cc1 (centres undefined) : > 100 µM

# credit: BindingDB's records for doi:10.1111/cbdd.12570
